pIC50: −log10 of the molar value.
Across several studies, molecules have been characterized by their pIC50 on PIK3CD (Human) (UniProt O00329); a selection follows.
readout.type: pIC50

> print(dat)
                                   molecule  readout.type  inequality.sign  observed
1  Cc1nn(C(C)c2cc(Cl)c(F)c3c2OC(C)CN(C[C@@H](C)O)C3)c2ncnc(N)c12 (single isomer, unassigned)         pIC50                ≥      7.00
2  Cc1nn(C(C)c2cc(Cl)c(C#N)c3c2OC(C)CN(C2CN(CC(C)(C)O)C2)C3)c2ncnc(N)c12 (single isomer, unassigned)         pIC50                ≥      7.00
3  C[C@H](Nc1ccc2c(c1)N(C)CCn1cc(N3C(=O)OC[C@H]3C(F)F)nc1-2)C(N)=O         pIC50                =      7.31
4  CCN(CC)C1CN(Cc2c(C)sc3c(-c4cnc(OC)c(NS(C)(=O)=O)c4)nc(N4CCOCC4)nc23)C1         pIC50                =      8.05
5  CN(C)[C@H]1CC[C@H](Nc2nc(N3CCOCC3)nc(-n3c(C(F)F)nc4ccccc43)n2)CC1         pIC50                =      7.48
